- Test system: 874868-142-R-J2-PDC complex spheroids, growth % test/control
- Method notes: Anticancer human tumor 874868-142-R-J2-PDC patient-derived head and neck squamous carcinoma cell line growth inhibition [CLK]
- Run conditions: second compound 3.16 µM; first compound 0.00316 µM; stronger effect = lower value
Assay endpoint: viability, T/C (%)
Express the result in % but write the number alone.

Completed entries (count: 3):
- Molecule: "CCN1CCN(Cc2ccc(Nc3ncc(F)c(-c4cc(F)c5nc(C)n(C(C)C)c5c4)n3)nc2)CC1 + CN1CCN(c2cc(C(=O)Nc3cc4cc(-c5cnn(C)c5)ccc4cn3)ccn2)CC1"
  Units symbol: "%"
  Observed result: 0.3
- Molecule: "Cn1ncnc1[C@H]1c2n[nH]c(=O)c3cc(F)cc(c23)N[C@@H]1c1ccc(F)cc1 + CN1CCN(c2cc(C(=O)Nc3cc4cc(-c5cnn(C)c5)ccc4cn3)ccn2)CC1"
  Units symbol: "%"
  Observed result: 0.15
- Molecule: "CCN1CCN(Cc2ccc(Nc3ncc(F)c(-c4cc(F)c5nc(C)n(C(C)C)c5c4)n3)nc2)CC1 + CNC(=O)c1ccc(Nc2nc(OC3CCCC3)c3c(-c4ccc5nc(C)oc5c4)c[nH]c3n2)c(OC)c1"
  Units symbol: "%"
  Observed result: 41.9

Let us examine a further case.
Request: Report viability, T/C for CCc1c2c(nc3ccc(O)cc13)-c1cc3c(c(=O)n1C2)COC(=O)[C@]3(O)CC + CNC(=O)c1ccc(Nc2nc(OC3CCCC3)c3c(-c4ccc5nc(C)oc5c4)c[nH]c3n2)c(OC)c1 please.
Result: 24.7

====

This section presents compounds with their documented viability, T/C values.
- Tested on: 874868-142-R-J2-PDC complex spheroids, growth % test/control
- Method notes: Anticancer human tumor 874868-142-R-J2-PDC cell line growth inhibition [CLK];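 note: spheroids exposed to the compounds for 7 days; 100% = DMSO vehicle control viability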
- Run conditions: second compound 3.16 µM; first compound 0.0316 µM; stronger effect = lower value
- Source text: A high-throughput screen of multi-cell type tumor spheroids was designed to identify active combinations of […] and targeted small molecules. Complex spheroids include a stromal component modeled by human endothelial cells (HUVEC) and fibroblasts modeled by human mesenchymal stem cells (MSCs). […] Compounds. […] If the clinical Cmax for an agent had not been determined, the highest concentration tested was 10 microM. […]
Please respond with the number in % and leave the unit unwritten.

These recorded examples may help you get a feel for the data.
- Compound: "O=c1[nH]cc(F)c(=O)[nH]1 + CNC(=O)c1ccc(Nc2nc(OC3CCCC3)c3c(-c4ccc5nc(C)oc5c4)c[nH]c3n2)c(OC)c1"
  Tested target: "874868-142-R-J2-PDC complex spheroids, growth % test/control"
  Assay endpoint: "viability, T/C"
  Observed result: 34.9
- Compound: "CC1(C)CCC(CN2CCN(c3ccc(C(=O)NS(=O)(=O)c4ccc(NCC5CCOCC5)c([N+](=O)[O-])c4)c(Oc4cnc5[nH]ccc5c4)c3)CC2)=C(c2ccc(Cl)cc2)C1 + CN1CCN(c2cc(C(=O)Nc3cc4cc(-c5cnn(C)c5)ccc4cn3)ccn2)CC1"
  Tested target: "874868-142-R-J2-PDC complex spheroids, growth % test/control"
  Assay endpoint: "viability, T/C"
  Observed result: 0.23
- Compound: "CCN1CCN(Cc2ccc(Nc3ncc(F)c(-c4cc(F)c5nc(C)n(C(C)C)c5c4)n3)nc2)CC1 + CNC(=O)c1ccc(Nc2nc(OC3CCCC3)c3c(-c4ccc5nc(C)oc5c4)c[nH]c3n2)c(OC)c1"
  Tested target: "874868-142-R-J2-PDC complex spheroids, growth % test/control"
  Assay endpoint: "viability, T/C"
  Observed result: 41.5

Turning now to a further compound:
Request: Fill in: viability, T/C of COc1cccc2c1C(=O)c1c(O)c3c(c(O)c1C2=O)CC(O)(C(=O)CO)CC3OC1CC(N)C(O)C(C)O1 (centres undefined) + CNC(=O)c1ccc(Nc2nc(OC3CCCC3)c3c(-c4ccc5nc(C)oc5c4)c[nH]c3n2)c(OC)c1 is ___
Result: 33.2

====

- Tested on: 874868-142-R-J2-PDC complex spheroids, growth % test/control
- Method notes: Anticancer human tumor 874868-142-R-J2-PDC cell line growth inhibition [CLK]; active = viability on the fitted dose curve at most 10% of control; inactive = the rest;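 note: spheroids exposed to the compounds for 7 days; 100% = DMSO vehicle control viability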
- Run conditions: second compound 1 µM; first compound 0.316 µM
Please reply with one of these outcomes: Y for active, N for inactive

Consider the worked cases shown below.
- Compound: "C=C(F)C(=O)N1CCN(c2nc(OCC3CCCN3C)nc3c2CCN(c2cccc4cccc(Cl)c24)C3)CC1CC#N (stereo not drawn) + CNC(=O)c1ccc(Nc2nc(OC3CCCC3)c3c(-c4ccc5nc(C)oc5c4)c[nH]c3n2)c(OC)c1"
  Classification: "N"
- Compound: "CCc1c2c(nc3ccc(O)cc13)-c1cc3c(c(=O)n1C2)COC(=O)[C@]3(O)CC + CN1CCN(c2cc(C(=O)Nc3cc4cc(-c5cnn(C)c5)ccc4cn3)ccn2)CC1"
  Classification: "Y"

Attention now turns to another entry.
Request: Please state the recorded outcome for this compound: C=C(F)C(=O)N1CCN(c2nc(OCC3CCCN3C)nc3c2CCN(c2cccc4cccc(Cl)c24)C3)CC1CC#N (stereo not drawn) + CN1CCN(c2cc(C(=O)Nc3cc4cc(-c5cnn(C)c5)ccc4cn3)ccn2)CC1
Result: Y

====

- Tested on: 874868-142-R-J2-PDC complex spheroids, growth % test/control
- Method notes: Anticancer human tumor 874868-142-R-J2-PDC cell line growth inhibition [CLK];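 note: spheroids exposed to the compounds for 7 days; 100% = DMSO vehicle control viability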
- Run conditions: second compound 0.1 µM; first compound 10 µM; stronger effect = lower value
viability, T/C vs 40%: less than gives t; not less than gives f.

Some solved cases for reference:
- Compound: "C#Cc1c(F)ccc2cc(O)cc(-c3ncc4c(N5CC6CCC(C5)N6)nc(OCC56CCCN5CC(F)C6)nc4c3F)c12 (centres undefined) + CN1CCN(c2cc(C(=O)Nc3cc4cc(-c5cnn(C)c5)ccc4cn3)ccn2)CC1"
  Classification: "f"
- Compound: "O=C(c1cc(Cc2n[nH]c(=O)c3ccccc23)ccc1F)N1CCN(C(=O)C2CC2)CC1 + CNC(=O)c1ccc(Nc2nc(OC3CCCC3)c3c(-c4ccc5nc(C)oc5c4)c[nH]c3n2)c(OC)c1"
  Classification: "f"
- Compound: "COC1C=CCC(C)C(C)S(=O)(=O)NC(=O)c2ccc3c(c2)N(CC2CCC21)CC1(CCCc2cc(Cl)ccc21)CO3 (centres undefined) + CN1CCN(c2cc(C(=O)Nc3cc4cc(-c5cnn(C)c5)ccc4cn3)ccn2)CC1"
  Classification: "t"

Request: Determine whether this compound shows viability, T/C lower than 40% (ties excluded): COc1ccc([C@@H](O)c2cc(-c3ncnc4cc(N5CCOCC5)ccc34)c(F)cc2Cl)nn1 + CN1CCN(c2cc(C(=O)Nc3cc4cc(-c5cnn(C)c5)ccc4cn3)ccn2)CC1
Result: t

Request: // next record COc1ccc([C@@H](O)c2cc(-c3ncnc4cc(N5CCOCC5)ccc34)c(F)cc2Cl)nn1 + CNC(=O)c1ccc(Nc2nc(OC3CCCC3)c3c(-c4ccc5nc(C)oc5c4)c[nH]c3n2)c(OC)c1
Result: t

Request: Repeat for the following compound: CC(=O)O[C@H]1C(=O)[C@@]2(C)[C@H]([C@H](OC(=O)c3ccccc3)[C@]3(O)C[C@H](OC(=O)[C@H](O)[C@@H](NC(=O)c4ccccc4)c4ccccc4)C(C)=C1C3(C)C)[C@]1(OC(C)=O)CO[C@@H]1C[C@@H]2O + CNC(=O)c1ccc(Nc2nc(OC3CCCC3)c3c(-c4ccc5nc(C)oc5c4)c[nH]c3n2)c(OC)c1
Result: f

Request: Would you mind doing Nc1ccccc1NC(=O)c1ccc(CNC(=O)OCc2cccnc2)cc1 + CNC(=O)c1ccc(Nc2nc(OC3CCCC3)c3c(-c4ccc5nc(C)oc5c4)c[nH]c3n2)c(OC)c1 as well?
Result: t

====

- Tested on: 874868-142-R-J2-PDC complex spheroids, growth % test/control
- Method notes: Anticancer human tumor 874868-142-R-J2-PDC cell line growth inhibition [CLK];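 note: spheroids exposed to the compounds for 7 days; 100% = DMSO vehicle control viability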
- Run conditions: second compound 3.16 µM; first compound 0.0316 µM; stronger effect = lower value
- Source text: A high-throughput screen of multi-cell type tumor spheroids was designed to identify active combinations of […] and targeted small molecules. Complex spheroids include a stromal component modeled by human endothelial cells (HUVEC) and fibroblasts modeled by human mesenchymal stem cells (MSCs). […] Compounds. […] If the clinical Cmax for an agent had not been determined, the highest concentration tested was 10 microM. […]
Assay endpoint: viability, T/C (%)
Give your result in % as a bare value.

- Molecule: "CCc1c2c(nc3ccc(O)cc13)-c1cc3c(c(=O)n1C2)COC(=O)[C@]3(O)CC + CN1CCN(c2cc(C(=O)Nc3cc4cc(-c5cnn(C)c5)ccc4cn3)ccn2)CC1"
  viability, T/C, %: 0.32
- Molecule: "Cn1ncnc1[C@H]1c2n[nH]c(=O)c3cc(F)cc(c23)N[C@@H]1c1ccc(F)cc1 + CN1CCN(c2cc(C(=O)Nc3cc4cc(-c5cnn(C)c5)ccc4cn3)ccn2)CC1"
  viability, T/C, %: 0.12

// moving on: another record for viability, T/C
Request: # query: viability, T/C of entry Cn1ncnc1[C@H]1c2n[nH]c(=O)c3cc(F)cc(c23)N[C@@H]1c1ccc(F)cc1 + CNC(=O)c1ccc(Nc2nc(OC3CCCC3)c3c(-c4ccc5nc(C)oc5c4)c[nH]c3n2)c(OC)c1
Result: 44

Origin of measurements: PubChem BioAssay AID2060601
